test system: B16/F1 tumor-bearing C57BL6 mice; assay: Tissue concentration of radioiodinated benzamides in the C57BL6-B16/F1 mouse model (organ distribution and tumor accumulation); type: in vivo; conditions: 24 hours after intravenous administration; n = 3
Below, each of the molecules is paired with its reported Blood tissue concentration value.

// worked examples, Blood tissue concentration included
{"Molecule": "CCN(CC)CCNC(=O)c1cc(I)c(NC(=O)c2ccc3c(c2)OCO3)cc1OC [BA52]", "Blood tissue concentration": "0.05 % Injected Dose (ID)/g of Tissue"}
{"Molecule": "CCN(CC)CCNC(=O)c1cc(I)c(NC(=O)c2ccc(Cl)cc2)cc1OC [BA93]", "Blood tissue concentration": "0.22 % Injected Dose (ID)/g of Tissue"}
{"Molecule": "CCN(CC)CCNC(=O)c1cc(I)c(NC(=O)c2ccc(F)cc2)cc1OC [BA100]", "Blood tissue concentration": "0.07 % Injected Dose (ID)/g of Tissue"}
{"Molecule": "CCN(CC)CCNC(=O)c1cc(I)c(NC(=O)c2ccc(OC)cc2)cc1OC [BA95]", "Blood tissue concentration": "0.07 % Injected Dose (ID)/g of Tissue"}

Turning now to a further record.
Dear colleague, please send me the reported Blood tissue concentration for CCN(CC)CCNC(=O)c1cc(I)c(NC(=O)c2ccccc2)cc1OC [BA91] when you can.
0.22 % Injected Dose (ID)/g of Tissue

---

Below, each of the molecules is paired with its reported Tumor tissue concentration value.
tested on: B16/F1 tumor-bearing C57BL6 mice; experiment: Tissue concentration of radioiodinated benzamides in the C57BL6-B16/F1 mouse model (organ distribution and tumor accumulation); assay type: in vivo; details: 1 hour after intravenous administration; n = 3

{"Smiles input": "CCN(CC)CCNC(=O)c1cc(I)c(NC(=O)c2ccc3c(c2)OCO3)cc1OC", "Tumor tissue concentration": "14.83 % Injected Dose (ID)/g of Tissue"}
{"Smiles input": "CCN(CC)CCNC(=O)c1cc(I)c(NC(=O)c2ccc(OC)cc2)cc1OC", "Tumor tissue concentration": "17.45 % Injected Dose (ID)/g of Tissue"}

Dear colleague, please send me the reported Tumor tissue concentration for CCN(CC)CCNC(=O)c1cc(I)c(NC(=O)c2ccc(Cl)cc2)cc1OC when you can.
10.73 % Injected Dose (ID)/g of Tissue

Dear colleague, please send me the reported Tumor tissue concentration for CCN(CC)CCNC(=O)c1cc(I)c(NC(=O)c2ccc(F)cc2)cc1OC when you can.
25.51 % Injected Dose (ID)/g of Tissue

Dear colleague, please send me the reported Tumor tissue concentration for CCN(CC)CCNC(=O)c1cc(I)c(NC(=O)c2ccccc2)cc1OC when you can.
9.68 % Injected Dose (ID)/g of Tissue

---

system: B16/F1 tumor-bearing C57BL6 mice; assay: Tissue concentration of radioiodinated benzamides in the C57BL6-B16/F1 mouse model (organ distribution and tumor accumulation); format: in vivo; settings: 1 hour after intravenous administration; n = 3
Below, each of the compounds is paired with its reported Liver tissue concentration value.

{"Compound": "CCN(CC)CCNC(=O)c1cc(I)c(NC(=O)c2ccc(F)cc2)cc1OC [BA100]", "Endpoint label": "Liver tissue concentration", "Observed value": "15.49 % Injected Dose (ID)/g of Tissue"}
{"Compound": "CCN(CC)CCNC(=O)c1cc(I)c(NC(=O)c2ccc(Cl)cc2)cc1OC [BA93]", "Endpoint label": "Liver tissue concentration", "Observed value": "13.71 % Injected Dose (ID)/g of Tissue"}
{"Compound": "CCN(CC)CCNC(=O)c1cc(I)c(NC(=O)c2ccc(OC)cc2)cc1OC [BA95]", "Endpoint label": "Liver tissue concentration", "Observed value": "16.35 % Injected Dose (ID)/g of Tissue"}
{"Compound": "CCN(CC)CCNC(=O)c1cc(I)c(NC(=O)c2ccc3c(c2)OCO3)cc1OC [BA52]", "Endpoint label": "Liver tissue concentration", "Observed value": "19.11 % Injected Dose (ID)/g of Tissue"}

Turning now to a further record.
Dear colleague, please send me the reported Liver tissue concentration for CCN(CC)CCNC(=O)c1cc(I)c(NC(=O)c2ccccc2)cc1OC [BA91] when you can.
12.68 % Injected Dose (ID)/g of Tissue
